Measured GI50, listed per entry.
- testTarget: BaF3 cells expressing the target EGFR mutations (Homo sapiens, UniProt P00533, T790M/L858R, cells depend on it)
- Construct: IC50, BAF3 EGFR L858R-T790M PURO POOL; other: BAF3 EGFR L858R-T790M PURO POOL cells, MTT; IC50, BAF3 EGFR L858R-T790M PURO POOL; other: BAF3 EGFR L858R-T790M PURO POOL cells; MTT
- Sequence (P00533 whole entry T790M/L858R): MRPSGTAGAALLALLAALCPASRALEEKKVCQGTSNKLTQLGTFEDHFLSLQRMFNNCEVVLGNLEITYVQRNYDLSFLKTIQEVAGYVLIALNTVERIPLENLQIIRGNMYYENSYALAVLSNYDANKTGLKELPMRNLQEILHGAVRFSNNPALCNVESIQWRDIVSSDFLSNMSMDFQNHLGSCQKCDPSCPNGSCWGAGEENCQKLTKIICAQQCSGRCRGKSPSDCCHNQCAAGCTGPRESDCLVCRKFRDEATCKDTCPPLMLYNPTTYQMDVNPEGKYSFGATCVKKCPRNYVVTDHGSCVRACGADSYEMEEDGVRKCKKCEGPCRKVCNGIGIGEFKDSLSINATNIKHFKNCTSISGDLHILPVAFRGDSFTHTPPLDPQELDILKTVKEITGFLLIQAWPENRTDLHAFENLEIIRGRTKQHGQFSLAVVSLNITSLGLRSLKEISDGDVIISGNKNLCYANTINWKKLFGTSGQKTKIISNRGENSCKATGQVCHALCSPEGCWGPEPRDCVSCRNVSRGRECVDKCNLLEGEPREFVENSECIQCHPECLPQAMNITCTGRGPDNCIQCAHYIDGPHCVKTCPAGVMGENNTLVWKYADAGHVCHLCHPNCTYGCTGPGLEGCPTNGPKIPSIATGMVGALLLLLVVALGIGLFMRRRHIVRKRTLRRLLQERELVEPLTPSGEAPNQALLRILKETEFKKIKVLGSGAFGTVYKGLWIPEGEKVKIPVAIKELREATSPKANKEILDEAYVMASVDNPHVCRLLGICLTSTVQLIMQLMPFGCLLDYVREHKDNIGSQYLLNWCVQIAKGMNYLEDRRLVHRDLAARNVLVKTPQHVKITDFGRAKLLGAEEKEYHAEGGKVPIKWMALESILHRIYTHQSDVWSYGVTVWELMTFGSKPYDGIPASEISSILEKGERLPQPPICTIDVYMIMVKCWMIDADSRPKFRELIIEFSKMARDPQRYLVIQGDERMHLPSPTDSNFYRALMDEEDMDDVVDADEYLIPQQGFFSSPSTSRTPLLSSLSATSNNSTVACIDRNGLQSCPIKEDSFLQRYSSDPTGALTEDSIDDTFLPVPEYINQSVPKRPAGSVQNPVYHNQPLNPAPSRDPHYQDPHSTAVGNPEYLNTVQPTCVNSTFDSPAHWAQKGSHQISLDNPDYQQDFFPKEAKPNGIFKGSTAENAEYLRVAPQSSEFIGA
- testName: Antiproliferative activity (MTT) against BaF3 cells expressing the target EGFR mutations
- Type: cell-based
- conditionContext: BAF3 EGFR L858R-T790M PURO POOL cells, read-out: IC50, BAF3 EGFR L858R-T790M PURO POOL
- Procedure: We also assessed the antiproliferative activity of compounds of Formula (I) against BaF3 cells expressing the target EGFR mutations or control (i.e., cell lines expressing wildtype EGFR). Assays were conducted using MTT.

Would you please look over these solved cases?
C=CC(=O)Nc1cc(Nc2ncc(Cl)c(Nc3ccccc3P(C)(C)=O)n2)c(OC)cc1N1CCC(N2CCN(CCO)CC2)C1 (centres unmarked): ≥ 250 nM
C=CC(=O)Nc1cc(Nc2ncc(Cl)c(Nc3ccccc3P(C)(C)=O)n2)c(OC)cc1C(=O)N1CCN(C)CC1: ≥ 250 nM
C=CC(=O)Nc1cc(Nc2ncc(Cl)c(Nc3ccccc3P(C)(C)=O)n2)c(OC)cc1OCC1CCCN1C (centres unmarked): < 50 nM

Now look at this entry.
IN: Suppose we examine the molecule COc1ccc(NC(=O)/C=C/C2(NC(=O)OC(C)(C)C)CC2)cc1Nc1ncc(Cl)c(Nc2ccccc2P(C)(C)=O)n1 ; what GI50 value has been reported?
OUT: ≥ 250 nM
